# assayed_target: hGHQ40N, P01241
# Sequence (P01241 27-217 Q66N): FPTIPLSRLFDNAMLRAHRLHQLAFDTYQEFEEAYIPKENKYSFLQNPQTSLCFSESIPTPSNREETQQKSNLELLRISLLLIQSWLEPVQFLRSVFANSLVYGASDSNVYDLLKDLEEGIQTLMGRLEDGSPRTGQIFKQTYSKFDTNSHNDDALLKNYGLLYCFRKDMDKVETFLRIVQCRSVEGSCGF
attribute_measured: Activity towards hGHQ40N (RFU/sec/µg)
The figure you give is taken to be in RFU/sec/µg; do not add the unit.

I am curious: what Activity towards hGHQ40N (RFU/sec/µg) value has been reported for Met-mTGase from S. ladakanum (protein) MDSDERVTPPAEPLDRMPDPYRPSYGRAETIVNNYIRKWQQVYSHRDGRKQQMTEEQREWLSYGCVGVTWVNSGQYPTNRLAFAFFDEDKYKNELKNGRPRSGETRAEFEGRVAKDSFDEAKGFQRARDVASVMNKALENAHDEGAYLDNLKKELANGNDALRNEDARSPFYSALRNTPSFKDRNGGNHDPSKMKAVIYSKHFWSGQDRSGSSDKRKYGDPEAFRPDRGTGLVDMSRDRNIPRSPTSPGESFVNFDYGWFGAQTEADADKTVWTHGNHYHAPNGSLGAMHVYESKFRNWSDGYSDFDRGAYVVTFVPKSWNTAPDKVKQGWP ?
4.74
